Just for reference, PubChem BioAssay is where these values come from.

Reported values of composite z-score for individual entries
# ASSAY INFO: binders of probe aHhip on microarray, primary screen, stem cell growth factor project, biochemical, small-molecule microarray, fluorescence 635/667 (AID 1087);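 note: score merges spot fluorescence at 667nm with spot signal to noise ratio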
# APPLIED CONDITIONS: higher = more signal

COMPOUND	composite z-score
COCCOC(=O)N1C(=O)[C@@]2(c3cc(C#Cc4ccc(OC)cc4)ccc31)[C@H](c1ccc(O)cc1)N1[C@H](c3ccccc3)[C@H](c3ccccc3)OC(=O)[C@H]1[C@@H]2C(=O)N1CCCCCCC1	2.1
CC(CO)N1C(=O)[C@@H]2[C@H]3C(=O)OCC=C[C@H]3OC23C=CCN(CCN2CCOCC2)C(=O)[C@@H]13 (some centres undefined)	-0.539

Input: Retrieve composite z-score measured for C[C@@H]1ON(c2ccc(C(=O)OC(C)(C)C)cc2)[C@H](c2ccc(O)cc2)[C@H]1C(=O)N1C(=O)OC[C@H]1Cc1ccccc1 and print it.
Output: -0.0645

Input: Retrieve composite z-score measured for CCCCC(O)C1C=CC2C(=O)N(c3ccccc3)C(=O)C2N1Nc1ccc(C(C)C)cc1 (centres undefined) and print it.
Output: -0.217

Input: Retrieve composite z-score measured for COc1ccc(C(O)C2C=CC3C(=O)N(c4ccccc4)C(=O)C3N2Nc2ccc([N+](=O)[O-])cc2)cc1 (centres undefined) and print it.
Output: -0.149

Input: Retrieve composite z-score measured for CN(C)CCCNC(=O)[C@@H]1c2ccccc2C(=O)N(Cc2ccccc2Cl)[C@H]1c1ccc(CO)cc1 and print it.
Output: -0.19

Input: Retrieve composite z-score measured for C=CCC(OC(C)=O)[C@@H]1[C@@H](N(Cc2cccc3ccccc23)C(=O)Cc2ccc(OC)cc2)c2cc(OCCCO)ccc2N1C(=O)c1ccc2ccccc2n1 (some centres undefined) and print it.
Output: -0.152

Input: Retrieve composite z-score measured for COC(=O)c1c2oc(c1C(=O)OC)C(=O)N(Cc1ccccc1)Cc1cn(nn1)C[C@H](Cc1ccccc1)NC(=O)N[C@H](CO)CC2 and print it.
Output: 0.0092

Input: Retrieve composite z-score measured for COCCOC(=O)N1C(=O)[C@@]2(c3cc(C#Cc4ccc(OC)cc4)ccc31)[C@H](c1ccccc1OCCO)N1[C@H](c3ccccc3)[C@H](c3ccccc3)OC(=O)[C@H]1[C@@H]2C(=O)N1CCCCCCC1 and print it.
Output: 1.47

Input: Retrieve composite z-score measured for C=CCC(OC(C)=O)[C@@H]1[C@@H](N(Cc2ccc(-c3cccc(C(F)(F)F)c3)o2)C(=O)c2ccc(-c3ccccc3)cc2)c2cc(OCCCO)ccc2N1C(=O)c1ccc2ccccc2n1 (some centres undefined) and print it.
Output: -0.0237
